molecular target: Dual specificity tyrosine-phosphorylation-regulated kinase 3 (Homo sapiens, UniProt O43781); assay: biochemical
Sequence (O43781 whole entry): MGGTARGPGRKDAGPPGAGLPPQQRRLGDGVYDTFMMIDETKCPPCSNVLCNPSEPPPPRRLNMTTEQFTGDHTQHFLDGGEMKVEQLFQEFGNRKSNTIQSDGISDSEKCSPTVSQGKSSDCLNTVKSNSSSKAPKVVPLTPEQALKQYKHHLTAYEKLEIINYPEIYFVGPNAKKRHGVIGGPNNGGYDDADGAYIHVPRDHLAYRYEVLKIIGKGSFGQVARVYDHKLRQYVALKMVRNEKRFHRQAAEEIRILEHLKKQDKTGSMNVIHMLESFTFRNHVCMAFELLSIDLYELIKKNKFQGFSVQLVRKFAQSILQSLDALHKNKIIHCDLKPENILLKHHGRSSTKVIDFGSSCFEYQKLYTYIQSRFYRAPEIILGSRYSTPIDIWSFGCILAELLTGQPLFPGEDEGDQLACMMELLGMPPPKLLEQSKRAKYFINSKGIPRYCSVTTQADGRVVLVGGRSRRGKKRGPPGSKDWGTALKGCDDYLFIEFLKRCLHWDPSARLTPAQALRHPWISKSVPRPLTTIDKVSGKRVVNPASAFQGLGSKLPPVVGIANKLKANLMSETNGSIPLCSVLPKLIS

[
  {
    "MOLECULE": "CCN1CCN(Cc2ccc(Nc3ncc(F)c(-c4cc(F)c5nc(C)n(C(C)C)c5c4)n3)nc2)CC1",
    "VALUE_COMPARATOR": "=",
    "IC50, µM": 0.0206
  },
  {
    "MOLECULE": "COc1ccc(/C=C2\\SC(=S)NC2=O)cc1C#C[Si](C)(C)C",
    "VALUE_COMPARATOR": ">",
    "IC50, µM": 10
  },
  {
    "MOLECULE": "COc1ccc2c3ccnc(Cl)c3n(CC#N)c2c1",
    "VALUE_COMPARATOR": "=",
    "IC50, µM": 1.22
  },
  {
    "MOLECULE": "CC(C)Oc1ccc(F)c(-c2cnc(N)c(C(=O)Nc3cnccc3N3CCC[C@@H](C(=O)O)C3)n2)c1",
    "VALUE_COMPARATOR": "=",
    "IC50, µM": 5.6
  },
  {
    "MOLECULE": "O=C(O[C@@H]1Cc2c(O)cc(O)cc2O[C@@H]1c1cc(O)c(O)c(O)c1)c1cc(O)c(O)c(O)c1 [EPIGALOCATECHIN GALLATE]",
    "VALUE_COMPARATOR": "=",
    "IC50, µM": 1.62
  },
  {
    "MOLECULE": "CCOC(=O)c1c(/C(C#N)=C\\N)c2ccc(Cl)c(Cl)c2n1C",
    "VALUE_COMPARATOR": ">",
    "IC50, µM": 10
  },
  {
    "MOLECULE": "COC1=CC2C(=O)NC3=Cc4ccc(OC)cc4C(=C1OC)C32 (centres undefined)",
    "VALUE_COMPARATOR": "=",
    "IC50, µM": 0.0235
  },
  {
    "MOLECULE": "Cn1cc(-c2ccc3occ(-c4cccc(-c5ccncc5)c4)c3n2)cn1",
    "VALUE_COMPARATOR": ">",
    "IC50, µM": 10
  },
  {
    "MOLECULE": "O=C(O)c1ccc2c(c1)nc(Nc1cccc(Cl)c1)c1ccncc12",
    "VALUE_COMPARATOR": "=",
    "IC50, µM": 0.0308
  },
  {
    "MOLECULE": "Oc1ccc(-c2cnc3[nH]cc(-c4ccc(F)cc4)c3c2)cc1O",
    "VALUE_COMPARATOR": ">",
    "IC50, µM": 10
  },
  {
    "MOLECULE": "CCNc1cc(Nc2ccc(C(=O)N3CCC(N4CCOCC4)CC3)cc2OC)nc2[nH]cc(C(F)(F)F)c12",
    "VALUE_COMPARATOR": "=",
    "IC50, µM": 7.15
  },
  {
    "MOLECULE": "CNCc1ccc(-c2[nH]c3cc(F)cc4c3c2CCNC4=O)cc1",
    "VALUE_COMPARATOR": "=",
    "IC50, µM": 8.03
  },
  {
    "MOLECULE": "Cc1cccc(N(C)c2nccc(-c3cnn4ncccc34)n2)c1",
    "VALUE_COMPARATOR": ">",
    "IC50, µM": 10
  },
  {
    "MOLECULE": "COc1ccc(-n2c(C)c([N+](=O)[O-])c3ccc(O)cc32)cc1",
    "VALUE_COMPARATOR": ">",
    "IC50, µM": 10
  },
  {
    "MOLECULE": "O=C(Nc1ccc2[nH]ncc2c1)c1csc(Nc2ccccc2)n1",
    "VALUE_COMPARATOR": "=",
    "IC50, µM": 5.45
  },
  {
    "MOLECULE": "CCN1/C(=C/C(C)=O)Sc2ccc(O)cc21",
    "VALUE_COMPARATOR": "=",
    "IC50, µM": 0.0826
  },
  {
    "MOLECULE": "COc1cc(CCc2c(O)ccc(O[C@@H]3O[C@H](CO)[C@@H](O)[C@H](O)[C@H]3O)c2C(C)=O)ccc1O [SCORZODIHYDROSTILBENE A]",
    "VALUE_COMPARATOR": ">",
    "IC50, µM": 10
  },
  {
    "MOLECULE": "CCN(CC)Cc1ccc(OC)c(-c2cc3c(-c4ccc(C(=O)O)c(C(C)C)c4)ccnc3[nH]2)c1",
    "VALUE_COMPARATOR": ">",
    "IC50, µM": 10
  },
  {
    "MOLECULE": "CN1CCN(C(=O)C(C)(C)c2ccc(C(=O)Cc3cn4cc(-c5ccncc5)ccc4n3)cc2)CC1",
    "VALUE_COMPARATOR": ">",
    "IC50, µM": 10
  },
  {
    "MOLECULE": "O=c1c2c(O)cc(O)cc2oc2c(O)ccc(O)c12",
    "VALUE_COMPARATOR": ">",
    "IC50, µM": 10
  },
  {
    "MOLECULE": "Cc1ccc([N+](=O)[O-])cc1S(=O)(=O)N(C)/N=C/c1cnc2ccc(Br)cn12",
    "VALUE_COMPARATOR": "=",
    "IC50, µM": 0.0104
  },
  {
    "MOLECULE": "CN1Cc2nn(C)c(C#N)c2-c2cnc3[nH]cc(c3c2)-c2cn(nc2C(F)(F)F)CCCC1=O",
    "VALUE_COMPARATOR": ">",
    "IC50, µM": 10
  },
  {
    "MOLECULE": "CN1Cc2nn(C)c(C#N)c2-c2cnc3[nH]c(F)c(c3c2)-c2cn(nc2C(F)(F)F)CCCC1=O",
    "VALUE_COMPARATOR": ">",
    "IC50, µM": 10
  },
  {
    "MOLECULE": "Cn1cc(-c2ccc3cnc(NC(=O)C4CCN(S(C)(=O)=O)CC4)cc3c2)cn1",
    "VALUE_COMPARATOR": "=",
    "IC50, µM": 0.209
  },
  {
    "MOLECULE": "CC(C)(c1ccc(O)cc1)c1ccc(O)cc1",
    "VALUE_COMPARATOR": ">",
    "IC50, µM": 10
  },
  {
    "MOLECULE": "CCOc1ccc2nc(N3CCCN(C(=S)Nc4ccccc4F)CC3)c(C#N)cc2c1",
    "VALUE_COMPARATOR": ">",
    "IC50, µM": 10
  },
  {
    "MOLECULE": "O=C1Nc2cc(S(=O)(=O)Cc3c(Cl)cccc3Cl)ccc2S/C1=C\\c1ccc(O)c([N+](=O)[O-])c1",
    "VALUE_COMPARATOR": ">",
    "IC50, µM": 10
  },
  {
    "MOLECULE": "c1cc(OCCN2CCCCC2)cc(-c2n[nH]c3ccc(-c4nc[nH]n4)cc23)c1",
    "VALUE_COMPARATOR": "=",
    "IC50, µM": 4.31
  },
  {
    "MOLECULE": "Cc1cc(C(=O)NC2Nc3cccc(C)c3N2[C@H]2CCCCN(C(=O)/C=C/CN(C)C)C2)ccn1 (some centres undefined)",
    "VALUE_COMPARATOR": ">",
    "IC50, µM": 10
  },
  {
    "MOLECULE": "COc1ccc2c(c1)[nH]c1c(C)nccc12",
    "VALUE_COMPARATOR": "=",
    "IC50, µM": 2.86
  },
  {
    "MOLECULE": "COC(=N)c1nc2ccc3ncnc(Nc4ccc(OC)cc4F)c3c2s1",
    "VALUE_COMPARATOR": ">",
    "IC50, µM": 10
  },
  {
    "MOLECULE": "O=C1NC(=Nc2c(Cl)cccc2Cl)S/C1=C\\c1ccc2nccnc2c1",
    "VALUE_COMPARATOR": "=",
    "IC50, µM": 0.0227
  },
  {
    "MOLECULE": "CC(=O)c1nccc2c1[nH]c1ccccc12",
    "VALUE_COMPARATOR": ">",
    "IC50, µM": 10
  },
  {
    "MOLECULE": "Cc1ccc(-n2cc(COc3cccc4cnc(Nc5cccc(Cl)c5)nc34)nn2)c([N+](=O)[O-])c1",
    "VALUE_COMPARATOR": ">",
    "IC50, µM": 10
  },
  {
    "MOLECULE": "CC(C)CN1CCC(C(=O)Nc2cc3cc(-c4cnn(C)c4)ccc3cn2)CC1",
    "VALUE_COMPARATOR": "=",
    "IC50, µM": 0.683
  },
  {
    "MOLECULE": "Cc1nc2ccc(-c3cc(N)nc(N)c3)nc2n1C(C)C",
    "VALUE_COMPARATOR": ">",
    "IC50, µM": 10
  },
  {
    "MOLECULE": "c1ccc(-c2ccc3[nH]ncc3c2)cc1",
    "VALUE_COMPARATOR": "=",
    "IC50, µM": 5.85
  },
  {
    "MOLECULE": "CN(C)c1nccc(-c2cnn3ncccc23)n1",
    "VALUE_COMPARATOR": "=",
    "IC50, µM": 4.45
  },
  {
    "MOLECULE": "Cc1nc2ccc(-c3cc(N)nc(N)c3)nc2n1CC(F)(F)F",
    "VALUE_COMPARATOR": ">",
    "IC50, µM": 10
  }
]
